These measurements were taken from ChEMBL document CHEMBL1201862.

System: MCF7
Assay Summary: NCI tumour cell line growth inhibition, 48 h
Calls of active or inactive are those of the source. Rule as the data show it: active = GI50 up to about 1.1 µM and inactive = higher.
Measurement Type: GI50

Compound: C[C@]12CC[C@H](O)CC1=CC[C@@H]1[C@@H]2CC[C@]2(C)/C(=N/OCCN3CCCC3)CC[C@@H]12
Recorded Measurement: 19.1 µM (inactive)
//
Compound: CN1[C@@H]2CCCC[C@H]2N(C)P1(=O)C(O)/C=C/c1ccccc1 (some centres undefined)
Recorded Measurement: > 100 µM (inactive)
//
Compound: OC1CCC(C2C3CCCCC3C3CCCCC3C2C2CCC(O)CC2)CC1 (centres undefined)
Recorded Measurement: 3.4 µM (inactive)
//
Compound: O=C(O)CCCCCCCCC(=O)O
Recorded Measurement: > 377 µM (inactive)

* * *

# GI50 per record follows
Tested on: MOLT-4
Assay Summary: NCI tumour cell line growth inhibition, 48 h
The source made the active and inactive calls. Cut-off read from the data, not from the text of the source: active = GI50 up to about 1.1 µM and inactive = higher.
Measurement Type: GI50

Compound: Cc1cccc(/C(Br)=C2/OC(=O)c3ccccc32)c1
Measurement Type: GI50
Recorded Measurement: > 100 µM (inactive)
--
Compound: CCN(CC)C1C(=O)NC1C#Cc1ccccc1 (stereo not given)
Measurement Type: GI50
Recorded Measurement: > 10 µM (inactive)
--
Compound: COc1ccc([I+]c2ccc(OC)cc2)cc1
Measurement Type: GI50
Recorded Measurement: > 100 µM (inactive)
--
Compound: COc1ccc(C2SC(=N)Nc3c2c(C)nn3C(=O)c2ccncc2)cc1 (stereo not given)
Measurement Type: GI50
Recorded Measurement: 44.5 µM (inactive)
--
Compound: N#CC1(C#N)C(c2ccccc2)C=CC12OCCCO2 (stereo not given)
Measurement Type: GI50
Recorded Measurement: 26.7 µM (inactive)

* * *

System: SF-268
Assay Summary: NCI tumour cell line growth inhibition, 48 h
Active and inactive are the calls of the source. Rule as the data show it: active = GI50 up to about 1.1 µM and inactive = higher.
Classes used: t (active), f (inactive)

Compound: CCCCCCCCC[C@@H]1C[C@H](O)[C@H](Cc2ccccc2)N1C(=O)OC(C)(C)C
Assigned Class: f
--
Compound: CC(=O)OC1COC(N2C(=O)C(=O)c3cc(Br)c([N+](=O)[O-])cc32)C(OC(C)=O)C1OC(C)=O (centres undefined)
Assigned Class: f
--
Compound: CCC(=O)N1C(=O)OCC1C(C)C (centres undefined)
Assigned Class: f
--
Compound: Oc1ccc(O)c(CNc2ccc(C(O)C(F)(F)F)cc2)c1 (centres undefined)
Assigned Class: f
--
Compound: CC(C)(C)C(=O)C(c1ccc(-c2cscn2)cc1)c1ccc(-c2cscn2)cc1
Assigned Class: f
--
Compound: OC1CCN(c2c3ccccc3nc3ccccc23)CC1
Assigned Class: f
--
Compound: O=c1n(CCCCn2c(=O)n(CC3CS3)c3ccccc32)c2ccccc2n1CC1CS1 (centres undefined)
Assigned Class: f
--
Compound: C[C@H]1NC(=O)C2CCCCN2C(=O)CN(C)C(=O)CNC(=O)C2CCCCN2C(=O)[C@@H](NC(=O)c2nc3ccccc3cc2O)[C@@H](C)NC(=O)C2CCCCN2C(=O)CN(C)C(=O)CNC(=O)[C@@H]2CCCCN2C(=O)C1NC(=O)c1nc2ccccc2cc1O (some centres undefined)
Assigned Class: t
--
Compound: CN(CC(=O)O)S(=O)(=O)c1ccc(F)cc1
Assigned Class: f
--
Compound: CCCCC/C(=N\c1[nH]cnc1C(N)=O)OCC
Assigned Class: f
--
Compound: COc1cc(/C=N/c2nncs2)ccc1O
Assigned Class: f
--
Compound: C=CCCCC1(C)CCNC1=S (centres undefined)
Assigned Class: f
--
Compound: CCN(CC)c1ccc(/N=N/c2ccc([N+](=O)[O-])cc2OC(=O)/C=C/c2ccccc2)c(OC(=O)/C=C/c2ccccc2)c1
Assigned Class: f
--
Compound: O=C(N/N=C\c1ccc(Cl)cc1)Nc1ccc2ccccc2c1
Assigned Class: f
--
Compound: c1cc2c(cc1NC1=NCCO1)CCC2
Assigned Class: f
--
Compound: CC1(C)CCCC2OC2CCC(C)(C)C1=O (centres undefined)
Assigned Class: f
--
Compound: Cc1ccc(S(=O)(=O)NC(=O)NC(Cc2ccccc2)C(=O)O)cc1 (centres undefined)
Assigned Class: f
--
Compound: CCOC(=O)NC(=O)c1cn(CCCOC(=O)NCCCCCCNC(=O)OCCCn2c(=O)c(C(=O)NC(=O)OCC)cn(C)c2=O)c(=O)n(C)c1=O
Assigned Class: f
--
Compound: CC1=NN(c2nc(N)nc(CSc3nc4n(c(=S)n3)CCN4)n2)C(C)(C)C1
Assigned Class: f
--
Compound: Cc1cc2c(=O)cc(-c3ccc(C(=O)O)cc3)oc2c(C(N)=O)c1C
Assigned Class: f
--
Compound: C[C@@H](CC(O)C(O)C(C)(C)O)C1CCC23CC12CCC1[C@@]2(C)CCC(O)C(C)(C)C2CC(OC2OC(CO)C(O)C(O)C2O)[C@]13C (some centres undefined)
Assigned Class: f
--
Compound: C=C1C2C[C@@H]3O[C@H]4C[C@H]5O[C@@]6(C[C@@H]7O[C@]8(C[C@H](C)[C@@H]9O[C@@H]%10CC(C=O)O[C@@H]%10C[C@@H]9O8)C[C@H](C)[C@@H]7O6)C[C@H]5O[C@H]4[C@H](C)[C@H]3OC(=O)C[C@H]3CC[C@@H]4OC5[C@H]6O[C@]7(CC[C@H]8CC(=C)[C@H](CC[C@@H](C[C@H]1C)O2)O8)CC6O[C@@H]5[C@@H](O7)[C@H]4O3 (some centres undefined)
Assigned Class: t
--
Compound: N=C(N)N/N=C\c1c(-c2cccc([N+](=O)[O-])c2)nc2sccn12
Assigned Class: f
--
Compound: COc1ccc(/C=N/n2c(=O)[nH]c3ccccc3c2=O)cc1
Assigned Class: f
--
Compound: CNc1ncnc2c1cnn2Cc1cn(CCCCO)nn1
Assigned Class: f
--
Compound: COC(=O)c1sc2nc(Nc3ccccc3)/c(=N\c3ccccc3)sc2c1C
Assigned Class: f
--
Compound: CCN1CCC(O)(c2ccc(Oc3ccc(F)cc3)cc2)C(C(=O)c2ccc(Oc3ccc(F)cc3)cc2)C1 (centres undefined)
Assigned Class: f
--
Compound: CCO/S(=N/S(=O)(=O)c1ccccc1)c1ccccc1[N+](=O)[O-] (centres undefined)
Assigned Class: f
--
Compound: CC(=O)O[C@H]1[C@@H](OC2CCCC2(c2ccccc2)c2ccccc2)O[N+]([O-])=C[C@@]12COCc1cc3c(cc12)OCO3 (some centres undefined)
Assigned Class: f
--
Compound: COc1ccc(O)c2c(=O)ccccc12
Assigned Class: f
--
Compound: CC(C)CCC1CC2C(=O)N(c3ccccc3)C(=O)C2c2[nH]c3ccccc3c21 (centres undefined)
Assigned Class: f
--
Compound: CCN(CC)CCCNc1ccc([N+](=O)[O-])c2nc3ccccc3c(N)c12
Assigned Class: f
--
Compound: O=C1N2CCN=C2c2ccccc2C1(O)c1ccccc1 (centres undefined)
Assigned Class: f
--
Compound: Cc1cccc(/C(Br)=C2/OC(=O)c3ccccc32)c1
Assigned Class: f

* * *

Test system: HL-60
Assay Summary: NCI tumour cell line growth inhibition, 48 h
Activity calls are given as the source filed them. Cut-off read from the data, not from the text of the source: active = GI50 up to about 1.1 µM and inactive = higher.
Classes used: active, inactive

Compound: CCN(CC)c1ccc(/N=N/c2ccc([N+](=O)[O-])cc2OC(=O)/C=C/c2ccccc2)c(OC(=O)/C=C/c2ccccc2)c1
Assigned Class: inactive
--
Compound: Nc1n[n+]([O-])c2cc([N+](=O)[O-])ccc2[n+]1[O-]
Assigned Class: inactive
--
Compound: N#Cc1c(-c2ccc(Cl)cc2)cc(-c2ccc(Nc3ccnc4cc(Cl)ccc34)cc2)[nH]c1=O
Assigned Class: inactive
--
Compound: CC1(C)N=C(N)N=C(N)N1c1ccc(Cl)cc1
Assigned Class: inactive
--
Compound: COc1ccccc1NC(=O)O/N=C(/Cl)C(C)C
Assigned Class: inactive
--
Compound: CC1=NN(c2nc(N)nc(CSc3nc4n(c(=S)n3)CCN4)n2)C(C)(C)C1
Assigned Class: inactive
--
Compound: CCCCCCCC/C=C\CCCCCCCCNc1ccn(C2OC(COP(=O)(O)OC3CC(n4cc(F)c(=O)[nH]c4=O)OC3CO)C(O)C2O)c(=O)n1 (stereo not drawn)
Assigned Class: inactive
--
Compound: CCOc1cc(C2CC(c3ccc(NS(=O)(=O)c4cc([N+](=O)[O-])ccc4C)cc3)=NN2S(=O)(=O)c2cc([N+](=O)[O-])ccc2C)ccc1O (stereo not drawn)
Assigned Class: inactive
--
Compound: O=C1NC(Cc2ccccc2)C(=O)N2CCCC12 (stereo not drawn)
Assigned Class: inactive
--
Compound: Cc1cc(O)c2c(c1)C(O)(c1ccc3c(c1O)C(=O)c1c(O)cc(C)cc1C3(O)C1OC(CO)C(O)C(O)C1O)c1cccc(O)c1C2=O (stereo not drawn)
Assigned Class: inactive
--
Compound: Cc1ccc([S+]([O-])(=Nc2ccccc2)C(C(C)C)C(C)(C)Cl)cc1 (stereo not drawn)
Assigned Class: inactive
--
Compound: C[C@]12CC[C@H](O)CC1=CC[C@@H]1[C@@H]2CC[C@]2(C)/C(=N/OCCN3CCCC3)CC[C@@H]12
Assigned Class: inactive
--
Compound: COC1(c2cccs2)c2ccccc2C(OC)(c2cccs2)c2ccccc21 (stereo not drawn)
Assigned Class: inactive
--
Compound: C[C@H]1NC(=O)C2CCCCN2C(=O)CN(C)C(=O)CNC(=O)C2CCCCN2C(=O)[C@@H](NC(=O)c2nc3ccccc3cc2O)[C@@H](C)NC(=O)C2CCCCN2C(=O)CN(C)C(=O)CNC(=O)[C@@H]2CCCCN2C(=O)C1NC(=O)c1nc2ccccc2cc1O (stereo partly drawn)
Assigned Class: inactive
--
Compound: N#Cc1c(NC(=S)Nc2ccc(Cl)cc2)sc2c1CCN(N1CCc3c(sc(NC(=S)Nc4ccc(Cl)cc4)c3C#N)C1)C2
Assigned Class: inactive
--
Compound: COc1ccc2[nH]c3c(C)c4ccnc(NCCCN(C)CCCN)c4c(C)c3c2c1
Assigned Class: active
--
Compound: CN(C)CCNC(=O)c1cc([N+](=O)[O-])ccn1
Assigned Class: inactive
--
Compound: COCC(O)CN1C(N)=NC(O)C1O (stereo not drawn)
Assigned Class: inactive
--
Compound: N#CSCC1COc2ccccc2O1 (stereo not drawn)
Assigned Class: inactive
--
Compound: Cc1ccc(O)c(Cc2nc3ccccc3nc2-c2cccc(Cl)c2)c1
Assigned Class: inactive
--
Compound: CCOC(=O)CCC(C(=O)OCC)n1nc2ccc(Nc3c(C)[n+]([O-])c4ccc(Cl)cc4[n+]3[O-])cc2n1 (stereo not drawn)
Assigned Class: inactive
--
Compound: N#Cc1cc2c(n(C3OC(CO)C(O)C(O)C3O)c1=S)CCCCCC2 (stereo not drawn)
Assigned Class: inactive
--
Compound: CC(C)[Si](OCC1CC(C[C@H]2CC(C[C@H]3C[C@@H](CO[Si](C(C)C)(C(C)C)C(C)C)OC(C)(C)O3)OC(C)(C)O2)OC(C)(C)O1)(C(C)C)C(C)C (stereo partly drawn)
Assigned Class: inactive
--
Compound: Clc1cc2nc[nH]c2cc1Cl
Assigned Class: inactive
--
Compound: CC1NC(C(=O)O)Cc2cc(O)c(O)cc21 (stereo not drawn)
Assigned Class: inactive
--
Compound: COc1ccc2c3c(c(=O)n(C)c2c1OC)C=CC(C)(C)O3
Assigned Class: inactive
--
Compound: COC(=O)CN(CC(O)C(NC(C)=O)C(O)C=O)C(=O)OCc1ccccc1 (stereo not drawn)
Assigned Class: inactive
--
Compound: CC1(C)CC(C)(C)C1=NNC(N)=O
Assigned Class: inactive
